Molecular target: Multidrug resistance protein CDR2 (Candida albicans (strain SC5314 / ATCC MYA-2876), UniProt P78595)
Sequence (P78595 whole entry): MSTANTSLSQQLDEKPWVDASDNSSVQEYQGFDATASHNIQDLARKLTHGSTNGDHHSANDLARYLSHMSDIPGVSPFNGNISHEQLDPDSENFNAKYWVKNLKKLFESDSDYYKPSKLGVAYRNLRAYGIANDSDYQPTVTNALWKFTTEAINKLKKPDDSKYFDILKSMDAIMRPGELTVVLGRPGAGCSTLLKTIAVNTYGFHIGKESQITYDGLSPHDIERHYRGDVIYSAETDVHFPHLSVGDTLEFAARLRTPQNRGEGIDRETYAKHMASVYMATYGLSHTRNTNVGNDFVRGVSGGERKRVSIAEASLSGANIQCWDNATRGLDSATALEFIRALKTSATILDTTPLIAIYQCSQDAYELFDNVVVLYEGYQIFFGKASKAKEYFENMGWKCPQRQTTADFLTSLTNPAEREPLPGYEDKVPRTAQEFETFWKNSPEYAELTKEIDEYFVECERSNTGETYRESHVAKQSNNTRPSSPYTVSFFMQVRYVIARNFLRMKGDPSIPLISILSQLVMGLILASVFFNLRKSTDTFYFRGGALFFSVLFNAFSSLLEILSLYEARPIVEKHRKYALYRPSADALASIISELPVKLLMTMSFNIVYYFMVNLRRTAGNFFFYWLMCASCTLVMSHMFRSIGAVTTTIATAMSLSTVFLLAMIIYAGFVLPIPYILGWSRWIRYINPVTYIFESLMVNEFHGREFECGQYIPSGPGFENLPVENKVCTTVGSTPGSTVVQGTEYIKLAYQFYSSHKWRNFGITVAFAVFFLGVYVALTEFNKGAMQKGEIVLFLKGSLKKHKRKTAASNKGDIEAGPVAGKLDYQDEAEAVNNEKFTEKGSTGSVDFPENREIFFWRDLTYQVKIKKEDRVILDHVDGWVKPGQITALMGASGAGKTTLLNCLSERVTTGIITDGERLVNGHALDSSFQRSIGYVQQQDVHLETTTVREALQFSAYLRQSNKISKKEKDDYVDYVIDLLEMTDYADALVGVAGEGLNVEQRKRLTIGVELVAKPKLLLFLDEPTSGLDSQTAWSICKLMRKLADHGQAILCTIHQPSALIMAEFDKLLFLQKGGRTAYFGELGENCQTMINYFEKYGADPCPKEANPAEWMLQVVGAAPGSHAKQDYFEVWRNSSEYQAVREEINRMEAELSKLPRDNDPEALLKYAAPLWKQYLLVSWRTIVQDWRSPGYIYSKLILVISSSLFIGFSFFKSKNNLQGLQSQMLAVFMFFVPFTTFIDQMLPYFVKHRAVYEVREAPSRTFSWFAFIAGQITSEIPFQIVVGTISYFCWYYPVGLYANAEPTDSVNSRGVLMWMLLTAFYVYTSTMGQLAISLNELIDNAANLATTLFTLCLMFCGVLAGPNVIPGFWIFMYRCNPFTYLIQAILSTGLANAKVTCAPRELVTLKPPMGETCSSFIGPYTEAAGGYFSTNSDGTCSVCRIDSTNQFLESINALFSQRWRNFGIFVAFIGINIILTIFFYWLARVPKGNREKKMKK
Assay: CaCDR2 efflux pump inhibitors in yeast, dose response, S. cerevisiae AD1-8u, singleplex, Cherry Pick1 hits (AID 588604)
measured quantity: EC50 (µM)
Respond numerically; units are µM and should not be typed.

Looking up `O=[N+]([O-])c1cc(CN=Nc2ccccn2)ccc1Cl` , I found its EC50 recorded as 9.33

src = BindingDB's records for doi:10.7270/Q28C9TSJ
